Test: Peptide stability in simulated gastric fluid (SGF)
Format: in vitro ADME
Conditions: pig, simulated gastric fluid (SGF) with porcine pepsin (3.2 g/L), pH 1.2, 10 µM, 37 °C, porcine pepsin, pH 1.2, 1 h; read-out: SGF (% remaining 1 h)
Procedure: SGF was prepared by dissolving sodium chloride (0.2 g) in 50 mL of water. A volume of 0.7 mL of 10 M HCl was added to adjust the pH of the solution to 1.2 and the volume made up to 100 mL with water. […] SIF was prepared by dissolving monobasic potassium phosphate (0.68 g) in 50 mL of water and adjusting the pH to 6.8 with 1 M NaOH. […] The incubation was performed at 37 °C with gentle shaking. […] Percent remaining at each timepoint was calculated relative to timepoint zero based on absolute peak areas. […]
*1 amine or outer side, *2 acyl side, *3 side chain or, on linkers, in order; H or OH if unused. Where a SMILES comes first, the peptide text is derived from it. Bridges are numbered along the chain shown (N, C = ends). [ ]: non-standard residue; d: D form. 2Nal = N[C@@H](Cc1ccc2ccccc2c1)C(=O)O; AEF = NCCOc1ccc(C[C@H](N)C(=O)O)cc1; 3Pal = N[C@@H](Cc1cccnc1)C(=O)O; Lys(Me) = CNCCCC[C@H](N)C(=O)O; αMeL = CC(C)C[C@](C)(N)C(=O)O; CH2COCH2 = O=C(C[*:1])C[*:2]; 3Amb = NCc1cccc(C(=O)O)c1; Dab = NCC[C@H](N)C(=O)O
// reported remaining at 1 h, 10 µM for each item listed
I only need the number, in %, no unit after it.

Below: 2 compounds and their reported remaining at 1 h, 10 µM.
[
  {
    "COMPOUND": "CC[C@H](C)[C@@H]1NC(=O)[C@@H]2CCC(=O)N(C)CCCC[C@@H](C(=O)N[C@@H](CCN)C(=O)N[C@@H](Cc3cccnc3)C(=O)NC)NC(=O)[C@](C)(CC(C)C)NC(=O)[C@H](Cc3ccc4ccccc4c3)NC(=O)[C@H](Cc3ccc(OCCN)cc3)NC(=O)[C@H](CCC(=O)N2)NC(=O)[C@H](CCC(N)=O)NC(=O)[C@H](Cc2c[nH]c3ccccc23)NC(=O)[C@H](C(C)C)NC1=O [Compound 74] (EIVWQE[AEF][2Nal][αMeL][Lys(Me)][Dab][3Pal]-NHMe; lactam 1-10, N-6)",
    "MEAS VALUE": 94
  },
  {
    "COMPOUND": "CC(C)C[C@@H]1NC(=O)[C@H](Cc2ccc3ccccc3c2)NC(=O)[C@H](Cc2c[nH]c3ccccc23)NC(=O)[C@@H]2CSCC(=O)CSC[C@H](NC(=O)[C@H](CO)NC(=O)c3cccc(c3)CNC(=O)CC[C@@H](C(=O)N[C@@H](CCCNC(=N)N)C(N)=O)NC1=O)C(=O)N[C@@H](Cc1c[nH]c3ccccc13)C(=O)N[C@@H](CCC(N)=O)C(=O)N2 [Ref 37, reference compound] ([3Amb]SCWQCW[2Nal]LER-NH2; linker 3-6 via CH2COCH2; lactam N-10)",
    "MEAS VALUE": 2
  }
]

Input CC[C@H](C)[C@@H]1NC(=O)[C@@H]2CCCCNC(=O)CC[C@@H](C(=O)N[C@@H](CCN)C(=O)N[C@@H](Cc3cccnc3)C(=O)NC)NC(=O)CNC(=O)[C@H](Cc3ccc4ccccc4c3)NC(=O)[C@H](Cc3ccc(OCCN)cc3)NC(=O)[C@H](CCC(=O)N2)NC(=O)[C@H](CCC(N)=O)NC(=O)[C@H](Cc2c[nH]c3ccccc23)NC(=O)[C@H](C(C)C)NC1=O . Output remaining at 1 h, 10 µM: 91

Input CC(C)C[C@]1(C)NC(=O)[C@H](Cc2ccc3ccccc3c2)NC(=O)[C@H](Cc2ccc(OCCN)cc2)NC(=O)[C@@H]2CSCC(=O)CSC[C@H](NC(=O)[C@H](CO)NC(=O)c3cccc(c3)CNC(=O)CC[C@@H](C(=O)N[C@H](CCCNC(=N)N)C(N)=O)NC1=O)C(=O)N[C@@H](Cc1c[nH]c3ccccc13)C(=O)N[C@@H](CCC(N)=O)C(=O)N2 [Ref 41, reference compound] ([3Amb]SCWQC[AEF][2Nal][αMeL]E[dR]-NH2; linker 3-6 via CH2COCH2; lactam N-10) . Output remaining at 1 h, 10 µM: 93

Input CC(C)C[C@]1(C)NC(=O)[C@H](Cc2ccc3ccccc3c2)NC(=O)[C@H](Cc2ccc(OCCN)cc2)NC(=O)[C@@H]2CCC(=O)N[C@H](CCCCNC(=O)CC[C@@H](C(=O)N[C@@H](CCN)C(=O)N[C@@H](Cc3cccnc3)C(N)=O)NC1=O)C(=O)N[C@@H]([C@@H](C)O)C(=O)N[C@@H](C(C)C)C(=O)N[C@@H](Cc1c[nH]c3ccccc13)C(=O)N[C@@H](CCC(N)=O)C(=O)N2 . Output remaining at 1 h, 10 µM: 104
